Target: T1, human VEGF (hVEGF) (human, UniProt P15692 181-395);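 further: fab variants flowed over hVEGF immobilized on a CM5 chip, rate constants from a one-to-one Langmuir fit, Kd taken as koff over kon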
T1 construct: also called VEGF-A
T1 sequence: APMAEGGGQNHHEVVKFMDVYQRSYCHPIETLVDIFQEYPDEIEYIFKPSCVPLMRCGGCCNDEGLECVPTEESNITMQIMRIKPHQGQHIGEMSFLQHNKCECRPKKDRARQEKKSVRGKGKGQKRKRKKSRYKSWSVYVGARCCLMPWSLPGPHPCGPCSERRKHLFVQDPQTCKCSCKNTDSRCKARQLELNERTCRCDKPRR
Assay: SPR
assay-endpoint: pKd
Quick note: pKd means taking -log10 of the concentration in moles per liter.

# lookup: pKd of HCLC4 (Fab, V domains shown, Fab) VH: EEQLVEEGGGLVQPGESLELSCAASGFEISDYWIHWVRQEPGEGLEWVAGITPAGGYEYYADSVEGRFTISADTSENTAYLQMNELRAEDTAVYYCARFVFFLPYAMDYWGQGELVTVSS VL: DIQMTQSPSSLSASVGDEVTITCRASQDVSTAVAWYQQKPGKAPKLLIYSASFLYSGVPSRFSGSGSGTDFTLTISSLQPEDAATYYCQQGYGAPFTFGQGTKVEIK 9.52

# lookup: pKd of G6.31 AAEE (LC-N94A.LC-F83A.HC-A40E.HC-T57E) (Fab, V domains shown, Fab; also called HC-A40E, HC-T57E, LC-F83A, LC-N94A) VH: EVQLVESGGGLVQPGGSLRLSCAASGFTISDYWIHWVRQEPGKGLEWVAGITPAGGYEYYADSVKGRFTISADTSKNTAYLQMNSLRAEDTAVYYCARFVFFLPYAMDYWGQGTLVTVSS VL: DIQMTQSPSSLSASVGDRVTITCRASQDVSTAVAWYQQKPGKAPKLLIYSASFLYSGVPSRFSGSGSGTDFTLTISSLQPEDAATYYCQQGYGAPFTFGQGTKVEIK 9.24

# lookup: pKd of R19HCLC4 (Fab, V domains shown, Fab) VH: EEQLVEEGGGLVQPGESLRLSCAASGFEISDYWIHWVRQEPGEGLEWVAGITPAGGYEYYADSVEGRFTISADTSENTAYLQMNELRAEDTAVYYCARFVFFLPYAMDYWGQGELVTVSS VL: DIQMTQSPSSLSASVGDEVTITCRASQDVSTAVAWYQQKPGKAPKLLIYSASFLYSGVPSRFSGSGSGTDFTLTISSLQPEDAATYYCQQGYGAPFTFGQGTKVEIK 9.77
